Listing: pIC50 of selected compounds
# target: COX-2 (Homo sapiens)
# Sequence (P35354 18-604): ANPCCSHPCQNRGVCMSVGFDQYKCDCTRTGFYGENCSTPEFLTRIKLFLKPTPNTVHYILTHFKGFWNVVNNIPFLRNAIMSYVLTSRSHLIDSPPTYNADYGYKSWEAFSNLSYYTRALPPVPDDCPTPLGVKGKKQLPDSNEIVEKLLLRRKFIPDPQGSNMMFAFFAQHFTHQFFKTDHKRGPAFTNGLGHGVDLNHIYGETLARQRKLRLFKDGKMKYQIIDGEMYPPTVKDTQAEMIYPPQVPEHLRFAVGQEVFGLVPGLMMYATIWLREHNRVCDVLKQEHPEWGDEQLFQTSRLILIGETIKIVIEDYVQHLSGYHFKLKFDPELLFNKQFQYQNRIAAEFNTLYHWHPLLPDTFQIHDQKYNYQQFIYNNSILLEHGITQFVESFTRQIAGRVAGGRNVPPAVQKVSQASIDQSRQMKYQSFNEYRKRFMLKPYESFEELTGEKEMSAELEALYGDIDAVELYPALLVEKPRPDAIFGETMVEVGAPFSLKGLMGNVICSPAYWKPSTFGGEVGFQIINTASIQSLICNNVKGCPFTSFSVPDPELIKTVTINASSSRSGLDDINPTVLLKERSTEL
API: returns pIC50 as number; meaning -log10 of concentration in mol/L.

{"compound": "Cc1c2c(c(C)n1-c1ccccc1)C(=O)N(CC(O)CN1CCN(c3ncccn3)CC1)C2=O (stereo not shown)", "target": "COX-2 (Homo sapiens)", "quantitativeReadout": 4.24}

[ask] Request the reported pIC50 associated with CCCCn1c(C)c2c(c1C)C(=O)N(CC(O)CN1CCN(c3ccc(Br)cc3)CC1)C2=O (stereo not shown)
[reply] 4.22

[ask] Returns the measured pIC50 for the input compound. Input: Cc1c2c(c(C)n1-c1ccccc1)C(=O)N(CC(O)CN1CCN(S(C)(=O)=O)CC1)C2=O (stereo not shown)
[reply] 4.21

[ask] What does the data say about its pIC50? Entry: CCCCn1c(C)c2c(c1C)C(=O)N(CC(O)CN1CCN(c3ncccn3)CC1)C2=O (stereo not shown)
[reply] 4.22

* * *

# target: COX-2 (Homo sapiens, UniProt P35354)
# Sequence (P35354 18-604): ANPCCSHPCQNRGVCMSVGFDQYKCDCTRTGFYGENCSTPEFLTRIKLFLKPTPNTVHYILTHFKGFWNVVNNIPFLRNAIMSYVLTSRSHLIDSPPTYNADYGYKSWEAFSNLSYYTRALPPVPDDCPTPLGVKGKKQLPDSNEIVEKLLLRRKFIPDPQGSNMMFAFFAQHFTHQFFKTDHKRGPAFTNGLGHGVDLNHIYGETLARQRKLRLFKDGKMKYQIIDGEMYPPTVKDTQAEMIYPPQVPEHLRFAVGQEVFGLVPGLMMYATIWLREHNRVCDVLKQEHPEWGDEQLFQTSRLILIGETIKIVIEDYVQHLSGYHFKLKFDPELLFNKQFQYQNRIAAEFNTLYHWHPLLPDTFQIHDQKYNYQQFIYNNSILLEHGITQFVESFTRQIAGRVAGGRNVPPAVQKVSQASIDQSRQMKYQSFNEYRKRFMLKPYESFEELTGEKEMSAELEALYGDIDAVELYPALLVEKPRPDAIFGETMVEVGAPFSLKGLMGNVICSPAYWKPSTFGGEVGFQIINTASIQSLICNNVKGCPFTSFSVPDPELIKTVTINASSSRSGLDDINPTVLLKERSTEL
# testProtocol: Colorimetric cyclooxygenase inhibition assay (COX-2)
# Format: biochemical
# testConditions: ratio COX-2 over COX-1
Form field: COX Selectivity Ratio IC50(COX-2)/IC50(COX-1) (one value per entry).

Past entries and their recorded results:
{"molecule": "Cc1c2c(c(C)n1-c1ccccc1)C(=O)N(CC(O)CN1CCN(c3ncccn3)CC1)C2=O (centres unmarked)", "result": 0.71}
{"molecule": "CCCCn1c(C)c2c(c1C)C(=O)N(CC(O)CN1CCN(c3ncccn3)CC1)C2=O (centres unmarked)", "result": 0.73}
{"molecule": "Cc1c2c(c(C)n1-c1cccc(Cl)c1)C(=O)N(CC(O)CN1CCN(c3ncccn3)CC1)C2=O (centres unmarked)", "result": 0.79}
{"molecule": "Cc1c2c(c(C)n1-c1ccccc1)C(=O)N(CC(O)CN1CCN(S(C)(=O)=O)CC1)C2=O (centres unmarked)", "result": 0.80}

From here, focus on the item given below.
[ask] Entry CCOc1ccccc1N1CCN(CC(O)CN2C(=O)c3c(c(C)n(-c4cccc(Cl)c4)c3C)C2=O)CC1 (centres unmarked) : reported COX Selectivity Ratio IC50(COX-2)/IC50(COX-1) = ?
[reply] 0.70

Reference for the values: paper PMC10303166
